B1: PhoQ; a variant is named by its letters at X, in order, P23837 (parent)
chain: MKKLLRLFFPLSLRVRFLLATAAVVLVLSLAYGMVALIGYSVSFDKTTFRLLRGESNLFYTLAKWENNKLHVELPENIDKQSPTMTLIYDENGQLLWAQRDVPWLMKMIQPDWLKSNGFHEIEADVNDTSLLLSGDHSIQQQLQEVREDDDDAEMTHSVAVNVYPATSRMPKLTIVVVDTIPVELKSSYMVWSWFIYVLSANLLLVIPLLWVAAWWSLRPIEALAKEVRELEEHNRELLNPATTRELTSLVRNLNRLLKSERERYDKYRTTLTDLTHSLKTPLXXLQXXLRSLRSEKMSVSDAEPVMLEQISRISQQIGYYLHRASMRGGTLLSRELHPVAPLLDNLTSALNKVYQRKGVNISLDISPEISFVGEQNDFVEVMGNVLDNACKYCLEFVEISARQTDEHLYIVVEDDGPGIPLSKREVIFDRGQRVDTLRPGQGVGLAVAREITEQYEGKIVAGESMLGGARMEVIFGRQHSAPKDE

- Variants of: B1
- Method: enrichment ratio after two sorts for PhoP signalling (ratio (wild type AVST 3.29)); higher = more functional
- Measurement conditions: with PhoP (E. coli)
In all, about 140,000 sequences were measured (“enrichment ratio after two sorts for PhoP signalling”: median about 0, highest 2% from about 11 on). The sample as a whole holds a higher share of the highest values than the screen did.
Measure: enrichment ratio

1. TSVM : 3.12
2. ADMV : 35.3
3. SICS : 16.9
4. QEWT : 11.3
5. TSWT : 13.4
